Reported Percent Effect values follow for various molecules
biological target: Protein translocase subunit SecA (Escherichia coli (strain K12)); experiment: Assay to Identify E. coli SecA ATPase Inhibitors; type: functional; parameters: scale not given: direction of the effect not stated beside the values; details: 30 µM
Measured potencies and affinities stand elsewhere.

Examples from the recorded data:
CCC(O)CN1CCN(C(=O)c2cccn2Cc2cccs2)CC1 (configuration not stated)
-3.15%
O=C(CCc1ccccc1)N1CCC(N2CCNC2=O)CC1
-4.14%
Cc1noc2ncc(C(=O)NCC3CCN(C(C)C)C3)cc12 (configuration not stated)
-2.65%

# query: Percent Effect of entry COCC1CCN(C(=O)c2cccc(S(=O)(=O)NCC3(C)COC3)c2)C1 (configuration not stated) -8.36%

# query: Percent Effect of entry `Cc1cc(N(C)Cc2noc(C)n2)n2nc(C)c(C)c2n1` -2.12%

# query: Percent Effect of entry `COc1cc(C(=O)NS(=O)(=O)c2cccc(C#N)c2)ccc1C` -1.35%

# query: Percent Effect of entry CCc1nc(C(=O)N2CCN(C)CC2C)nn1-c1ccccc1Cl (configuration not stated) -3.02%

# query: Percent Effect of entry `CC(C)NC(=O)c1ccc2c(c1)nc1n2CCN(c2ccccc2)C1` -1.74%

* * *

Reported Percent Effect values follow for various molecules
molecular target: AMP-activated protein kinase, AMPK (Homo sapiens) (UniProt P54646+O43741+P54619+Q9UGJ0+Q9Y478+Q13131+Q9UGI9); assay: AMP-dependent Kinase enzyme assay. An in vitro enzyme assay that detects ADP turnover that is directly proportional to AMPK activity. This uses naive AMPK that is activated during the assay with MK-8722; format: functional; set-up: scale not given: direction of the effect not stated beside the values; conditions: 30 µM
Please report the result as a number followed by the unit.

# query: Percent Effect of entry Cc1nc(C)n(C2CCCN(C(=O)c3ccc(N(C)C)nn3)C2)n1 (stereo unspecified) 4.94%

# query: Percent Effect of entry `CN1CCN(Cc2nc3ccccc3[nH]2)[C@H]2CS(=O)(=O)C[C@H]21` -2.29%

# query: Percent Effect of entry `O=C(NCC1CC1)Nc1cccc(N2CCN(CC3CC3)CC2)c1` -7.28%

# query: Percent Effect of entry CC1CCc2nc(O)c(C(=O)NCCN(C)C)cc2C1 (stereo unspecified) -0.0231%

# query: Percent Effect of entry `CCn1cc(NC(=O)C2CCN(Cc3noc(C(C)C)n3)CC2)cn1` 0.341%

# query: Percent Effect of entry `Cc1noc(C)c1CN1CC[C@@H](OCC2CC2)[C@@H](Cc2ccccc2)C1` 8.95%

# query: Percent Effect of entry `CNC(=O)c1cc2c(nc1NCC1CC1)CCN(S(=O)(=O)C1CC1)CC2` 3.29%

# query: Percent Effect of entry Cc1nc(C)n(CC2CCCN2CCCc2ccccc2)n1 (stereo unspecified) -0.4%

# query: Percent Effect of entry O=C(NCc1ccccn1)NC1CCOc2ccccc21 (stereo unspecified) -0.78%

# query: Percent Effect of entry O=C(COc1ccc2c(c1)CCC2)N1CCOCC1c1ncon1 (stereo unspecified) -3.96%

# query: Percent Effect of entry `CN(C)C(=O)COC[C@]12COC[C@H]1CN(CC1CCC1)C2` -10.5%

# query: Percent Effect of entry CCC(CC)c1cc(CNC(=O)N2CCOC(C)C2)on1 (stereo unspecified) -0.766%

# query: Percent Effect of entry `CCOc1ccc(-n2nnc(C(=O)O)c2-c2ccncc2)cc1` 1.31%

# query: Percent Effect of entry `CC(=O)N1CCCN(C(=O)c2ccn(-c3cccc(Cl)c3)n2)CC1` -0.208%

# query: Percent Effect of entry `Cc1cc(N(C)Cc2noc(C)n2)n2nc(C)c(C)c2n1` -8.49%

# query: Percent Effect of entry `Cn1ccc(-c2cc(C(=O)N3CCOCC3)c3ccccn23)n1` 19.9%

# query: Percent Effect of entry `CC(C)(CNC(=O)CCOc1cccc(F)c1)C(N)=O` 1.89%

From: ChEMBL document CHEMBL3988442
